# Test system: CCRF-CEM leukemia
# experimental.protocol: NCI tumour cell line growth inhibition, 48 h
quantity.name: TGI

compound="O=[N+]([O-])c1cccc(C2=NN(c3ccccc3)C3c4cc(Br)ccc4OCC23)c1 (stereo not drawn)" result="> 100 µM"

Give the measured TGI of COC(=O)/C=C(/C(=O)OC)C1(C)c2cc(C(=O)OC)c(C(=O)OC)c(N)c2C(=N)N1c1ccccc1 (stereo not drawn) .
50.4 µM

Consider the compound shown here: `Cn1nccc1Nc1nccc(-c2ccn([C@H](CO)c3ccc(Cl)c(F)c3)c(=O)c2)n1` What is its recorded TGI?
> 85.1 µM

====

# System: KM12 colon
# experimental.protocol: NCI tumour cell line growth inhibition, 48 h
quantity.name: TGI

Guide cases for TGI, answers given:
compound=CN(C)CCN(c1ccccn1)c1ccccn1 quantity_name=TGI result="> 100 µM"
compound="COC(=O)C1C(C(=O)OC)C2C(=O)C3C(C(=O)OC)C(C(=O)OC)C3C(=O)C12 (stereo unspecified)" quantity_name=TGI result="> 100 µM"
compound=Cc1c(C(=N)C(C#N)C#N)c(=N)oc2c1ccc1ccccc12 quantity_name=TGI result="> 100 µM"
compound=CCOC(=O)/C=C/c1nc(C#N)c(N)o1 quantity_name=TGI result="> 100 µM"
compound=O=C1NC(=N[C@@H](CO)c2ccccc2)S/C1=C\c1ccc2ncccc2c1 quantity_name=TGI result="> 25 µM"

Name the reported TGI value associated with the compound `O=c1c(F)cn2c(=O)n1CCCCCCCn1c(=O)c(F)cn(c1=O)CCCCCCC2`
> 100 µM

Can you share its TGI? I mean this compound: `CCn1c2c(c3ccccc3c1=O)C(=O)c1ccccc1-2`
> 100 µM

# lookup: TGI of `c1ccc2c(c1)SCCCS2`
> 100 µM

Using the record for `Cn1c2ccccc2n2c3ncccc3c(=O)c(C#N)c12` , report its TGI.
> 100 µM

Which TGI is listed for COC(=O)[C@]1(C)CCC[C@@]2(C)C1CC[C@]13C=C(C(C)C)[C@H](CC21)CC3(Cl)C#N (stereo partly specified) ?
> 100 µM

Look up TGI: `COc1cc(C)c(CC/C(C)=C/Cc2cc(O)ccc2O)c(C)c1C`
> 25 µM

Values from PubChem BioAssay (NCI)
